Taken from patent US9902703B2.

Recorded EC50 by entry
testTarget: human somatostatin receptor subtype 2 (Homo sapiens, UniProt P30874)
Construct: expressed in transfected cells; host or cells: CHO (Chinese hamster ovary) cells, G-418 selected
Sequence (P30874 whole entry): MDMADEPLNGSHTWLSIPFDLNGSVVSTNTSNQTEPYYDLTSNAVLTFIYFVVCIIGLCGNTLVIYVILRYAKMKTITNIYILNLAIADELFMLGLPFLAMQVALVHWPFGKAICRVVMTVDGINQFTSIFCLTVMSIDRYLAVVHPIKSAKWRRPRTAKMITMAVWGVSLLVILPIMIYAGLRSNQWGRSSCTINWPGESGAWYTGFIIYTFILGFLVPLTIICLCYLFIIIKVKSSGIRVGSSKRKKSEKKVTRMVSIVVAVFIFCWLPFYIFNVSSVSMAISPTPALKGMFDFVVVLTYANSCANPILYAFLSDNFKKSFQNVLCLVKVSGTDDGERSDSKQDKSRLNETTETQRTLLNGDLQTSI
protocolDescription: cAMP assay (functional assay for SSTR2 agonists)
Assay type: cell-based
experimentalSetup: CHO cells expressing human SSTR2; intracellular cAMP with forskolin, HTRF; read-out: SSTR2a EC50
From the text: Functional Assay for SSTR2 Agonists General overview: All five SSTR subtypes are Gi coupled G-protein coupled receptors (GPCRs) that lead to decreases in intracellular cyclic AMP (cAMP) when activated by an agonist. Therefore, measurement of intracellular cAMP levels can be used to assess whether compounds of the invention are agonists of SSTR subtypes (John Kelly, Troy Stevens, W. Joseph Thompson, and Roland Seifert, Current Protocols in Pharmacology, 2005, 2.2.1-2.2). […]

[
  {
    "compound": "COc1ccc(F)c(-c2cc3c(cc2C)N=CN(c2cc(C)cc(Cl)c2)C3C(=O)N(C)C[C@@H]2CCCN2)c1 (some centres unmarked)",
    "EC50": "< 100 nM"
  },
  {
    "compound": "Cc1cc(Cl)cc(N2C=Nc3cc(C)c(-c4cc(F)ccc4O)cc3C2C(=O)N(C)C[C@@H]2CCCN2)c1 (single isomer, unassigned)",
    "EC50": "< 100 nM"
  },
  {
    "compound": "CC[C@H](N)CN(C)C(=O)C1c2cc(-c3cc(O)cc(F)c3)c(Cl)cc2N=CN1c1cc(C)cc(C)c1 (some centres unmarked)",
    "EC50": "< 100 nM"
  },
  {
    "compound": "Cc1cc(C#N)cc(-c2cc3c(cc2C)N=CN(c2cc(C)cc(Cl)c2)C3C(=O)N(C)C[C@@H]2CCCN2)c1 (some centres unmarked)",
    "EC50": "< 100 nM"
  },
  {
    "compound": "Cc1cc(Cl)cc(N2C=Nc3cc(C)c(-c4cc(O)cc(C#N)c4)cc3C2C(=O)N(C)C[C@@H]2CCCN2)c1 (some centres unmarked)",
    "EC50": "< 100 nM"
  },
  {
    "compound": "CC[C@H](N)CN(C)C(=O)C1c2cc(-c3cccc(O)c3)c(C)cc2N=CN1c1cc(C)cc(C)c1 (some centres unmarked)",
    "EC50": "< 100 nM"
  },
  {
    "compound": "Cc1cc(Cl)cc(N2C=Nc3cc(C)c(-c4cccc(F)c4C)cc3C2C(=O)N(C)C[C@@H]2CCCN2)c1 (some centres unmarked)",
    "EC50": "< 100 nM"
  }
]

Now take the following compound into account.
Per the record, COc1c(C#N)cccc1-c1cc2c(cc1C)N=CN(c1cc(C)cc(Cl)c1)C2C(=O)N(C)C[C@@H]1CCCN1 (some centres unmarked) has EC50 of < 100 nM
